Origin of the recorded values: PubChem BioAssay (NCI)

Reported growth values for a set of compounds
System: NCI-H23 lung
Test: NCI-60 one-dose screen, 48 h (100 = growth as untreated, 0 = no growth, -100 = all killed)
Details: 10 µM unless noted
The panel holds about 83,000 compounds, 20% with a hit somewhere; the sample as a whole holds those more often.

[
  {
    "Compound": "C[C@]12CC[C@@H]3c4ccc(OC(=O)Cc5ccc(N(CCCl)CCCl)cc5)cc4CC[C@H]3[C@@H]1CC[C@@H]2OC(=O)Cc1ccc(N(CCCl)CCCl)cc1",
    "growth / %": 119
  },
  {
    "Compound": "c1cnc2c(c1)ccc1ncccc12",
    "growth / %": 121
  },
  {
    "Compound": "NC(=O)C(Br)CBr (stereo unspecified)",
    "growth / %": 24.1
  },
  {
    "Compound": "CC(C)CCC[C@@H](C)[C@H]1CC[C@H]2[C@@H]3CC=C4C[C@@H](OC(=O)Cc5ccc(N(CCCl)CCCl)cc5)CC[C@]4(C)[C@H]3CC[C@]12C",
    "growth / %": 107
  },
  {
    "Compound": "COc1cc(C2CC(=O)Nc3nc(N)[se]c32)cc(OC)c1OC (stereo unspecified)",
    "growth / %": 102
  },
  {
    "Compound": "NS(=O)(=O)c1nc[nH]c1[N+](=O)[O-]",
    "growth / %": 99.8
  },
  {
    "Compound": "O=C(CCl)NCNC(=O)CCl",
    "growth / %": 97.8
  },
  {
    "Compound": "O=C(c1cccs1)C1NO[N+]([O-])=C1c1cccs1 (stereo unspecified)",
    "growth / %": 4.55
  },
  {
    "Compound": "COc1ccc(OC)c(/C=C(/C)[N+](=O)[O-])c1",
    "growth / %": 53.8
  },
  {
    "Compound": "CC1CC=CCC12C(=O)NC(=S)NC2=O (stereo unspecified)",
    "growth / %": 113
  },
  {
    "Compound": "Nc1cccc2c1Oc1ccccc1O2",
    "growth / %": 105
  }
]

###

System: HL-60(TB) leukemia
Test: NCI-60 one-dose screen, 48 h (100 = growth as untreated, 0 = no growth, -100 = all killed)
Details: 10 µM unless noted
This is part of a sample that, as a whole, favours compounds with a hit. Of some 83,000 tested, about 20% had one in any assay.
Reported growth values for a set of compounds

[
  {
    "Compound": "O=C1c2c(c3c4ccccc4[nH]c3c3ccc4ccccc4c23)C(=O)N1CCN1CCOCC1",
    "growth (%)": 53.6
  },
  {
    "Compound": "COC(=O)CC[C@@H](C)[C@H]1CC[C@H]2[C@@H]3CC[C@@H]4C[C@H](O)CC[C@]4(C)[C@H]3C[C@H](O)[C@]12C",
    "growth (%)": 96.9
  },
  {
    "Compound": "Cc1ccc(C2CC(c3ccc(Nc4nc(NCCO)nc(Nc5ccc(Cl)cc5)n4)cc3)=NN2c2cc(Cl)cc(Cl)c2)cc1 (stereo not given)",
    "growth (%)": 100
  },
  {
    "Compound": "C#CCOc1cccc(-c2ncnc3cc(NC(=O)CCl)ccc23)c1",
    "growth (%)": -29.7
  },
  {
    "Compound": "CCN(CC)CC(C)Nc1ccc(C)c2sc3ccccc3c(=O)c12 (stereo not given)",
    "growth (%)": 50.8
  }
]
